assay: total protein half-life in vivo (active degradation + dilution); higher = more stable protein; conditions: wild type E. coli NCM3722; growth: N-lim chemostat; doubling time 6 h
measured.parameter: total protein half-life in vivo (h)
Respond numerically; units are h and should not be typed.

GET /value?item= MKTIHDIRRSNARKLRDGVGGNSSFATMIDREPTQTSRFMGDGATKNIGDSMARHIEKCFDLPVGWLDQEHQTTNITKKPDVSITNKQITLVPVISWVQAGAWKEVGYSEVDLSTAETYPCPVPCGEMTYILRVIGDSMIDEYRPGDMIFVDPEVPACHGDDVIALMHDTGETTFKRLIEDGTQRYLKALNPNWPEPYIKINGNCSIIGTVIFSGKPRRYKIKA &field=total protein half-life in vivo returns 5.26

GET /value?item= MKVKVLSLLVPALLVAGAANAAEVYNKDGNKLDLYGKVDGLHYFSDNKDVDGDQTYMRLGFKGETQVTDQLTGYGQWEYQIQGNSAENENNSWTRVAFAGLKFQDVGSFDYGRNYGVVYDVTSWTDVLPEFGGDTYGSDNFMQQRGNGFATYRNTDFFGLVDGLNFAVQYQGKNGNPSGEGFTSGVTNNGRDALRQNGDGVGGSITYDYEGFGIGGAISSSKRTDAQNTAAYIGNGDRAETYTGGLKYDANNIYLAAQYTQTYNATRVGSLGWANKAQNFEAVAQYQFDFGLRPSLAYLQSKGKNLGRGYDDEDILKYVDVGATYYFNKNMSTYVDYKINLLDDNQFTRDAGINTDNIVALGLVYQF &field=total protein half-life in vivo returns 5.94

GET /value?item= MIPEKRIIRRIQSGGCAIHCQDCSISQLCIPFTLNEHELDQLDNIIERKKPIQKGQTLFKAGDELKSLYAIRSGTIKSYTITEQGDEQITGFHLAGDLVGFDAIGSGHHPSFAQALETSMVCEIPFETLDDLSGKMPNLRQQMMRLMSGEIKGDQDMILLLSKKNAEERLAAFIYNLSRRFAQRGFSPREFRLTMTRGDIGNYLGLTVETISRLLGRFQKSGMLAVKGKYITIENNDALAQLAGHTRNVA [P0A9E5] &field=total protein half-life in vivo returns 1.35

GET /value?item= MAHIVTLNTPSREDWLTQLADVVTDPDELLRLLNIDAEEKLLAGRSAKKLFALRVPRSFIDRMEKGNPDDPLLRQVLTSQDEFVIAPGFSTDPLEEQHSVVPGLLHKYHNRALLLVKGGCAVNCRYCFRRHFPYAENQGNKRNWQTALEYVAAHPELDEMIFSGGDPLMAKDHELDWLLTQLEAIPHIKRLRIHSRLPIVIPARITEALVECFARSTLQILLVNHINHANEVDETFRQAMAKLRRVGVTLLNQSVLLRDVNDNAQTLANLSNALFDAGVMPYYLHVLDKVQGAAHFMVSDDEARQIMRELLTLVSGYLVPKLAREIGGEPSKTPLDLQLRQQ &field=total protein half-life in vivo returns 1.58

GET /value?item= MKKLTVAALAVTTLLSGSAFAHEAGEFFMRAGSATVRPTEGAGGTLGSLGGFSVTNNTQLGLTFTYMATDNIGVELLAATPFRHKIGTRATGDIATVHHLPPTLMAQWYFGDASSKFRPYVGAGINYTTFFDNGFNDHGKEAGLSDLSLKDSWGAAGQVGVDYLINRDWLVNMSVWYMDIDTTANYKLGGAQQHDSVRLDPWVFMFSAGYRF [P0A915] &field=total protein half-life in vivo returns 7.26

GET /value?item= MTAPLTLLIVEDETPLAEMHAEYIRHIPGFSQILLAGNLAQARMMIERFKPGLILLDNYLPDGRGINLLHELVQAHYPGDVVFTTAASDMETVSEAVRCGVFDYLIKPIAYERLGQTLTRFRQRKHMLESIDSASQKQIDEMFNAYARGEPKDELPTGIDPLTLNAVRKLFKEPGVQHTAETVAQALTISRTTARRYLEYCASRHLIIAEIVHGKVGRPQRIYHSG [P0AEF4] &field=total protein half-life in vivo returns 3

GET /value?item= MAQRVQLTATVSENQLGQRLDQALAEMFPDYSRSRIKEWILDQRVLVNGKVCDKPKEKVLGGEQVAINAEIEEEARFEPQDIPLDIVYEDEDIIIINKPRDLVVHPGAGNPDGTVLNALLHYYPPIADVPRAGIVHRLDKDTTGLMVVAKTVPAQTRLVESLQRREITREYEAVAIGHMTAGGTVDEPISRHPTKRTHMAVHPMGKPAVTHYRIMEHFRVHTRLRLRLETGRTHQIRVHMAHITHPLVGDPVYGGRPRPPKGASEAFISTLRKFDRQALHATMLRLYHPISGIEMEWHAPIPQDMVELIEVMRADFEEHKDEVDWL &field=total protein half-life in vivo returns 5.63

GET /value?item= MKKLVLSLSLVLAFSSATAAFAAIPQNIRIGTDPTYAPFESKNSQGELVGFDIDLAKELCKRINTQCTFVENPLDALIPSLKAKKIDAIMSSLSITEKRQQEIAFTDKLYAADSRLVVAKNSDIQPTVESLKGKRVGVLQGTTQETFGNEHWAPKGIEIVSYQGQDNIYSDLTAGRIDAAFQDEVAASEGFLKQPVGKDYKFGGPSVKDEKLFGVGTGMGLRKEDNELREALNKAFAEMRADGTYEKLAKKYFDFDVYGG [P0AEU0] &field=total protein half-life in vivo returns 5.8

GET /value?item= MDHRLLEIIACPVCNGKLWYNQEKQELICKLDNLAFPLRDGIPVLLETEARVLTADESKS [P0AAZ7] &field=total protein half-life in vivo returns 3.05

GET /value?item= MKFELDTTDGRARRGRLVFDRGVVETPCFMPVGTYGTVKGMTPEEVEATGAQIILGNTFHLWLRPGQEIMKLHGDLHDFMQWKGPILTDSGGFQVFSLGDIRKITEQGVHFRNPINGDPIFLDPEKSMEIQYDLGSDIVMIFDECTPYPADWDYAKRSMEMSLRWAKRSRERFDSLGNKNALFGIIQGSVYEDLRDISVKGLVDIGFDGYAVGGLAVGEPKADMHRILEHVCPQIPADKPRYLMGVGKPEDLVEGVRRGIDMFDCVMPTRNARNGHLFVTDGVVKIRNAKYKSDTGPLDPECDCYTCRNYSRAYLHHLDRCNEILGARLNTIHNLRYYQRLMAGLRKAIEEGKLESFVTDFYQRQGREVPPLNVD [P0A847] &field=total protein half-life in vivo returns 5.08

GET /value?item= MGQRIPVTLGNIAPLSLRPFQPGRIALVCEGGGQRGIFTAGVLDEFMRAQFNPFDLYLGTSAGAQNLSAFICNQPGYARKVIMRYTTKREFFDPLRFVRGGNLIDLDWLVEATASQMPLQMDTAARLFDSGKSFYMCACRQDDYAPNYFLPTKQNWLDVIRASSAIPGFYRSGVSLEGINYLDGGISDAIPVKEAARQGAKTLVVIRTVPSQMYYTPQWFKRMERWLGDSSLQPLVNLVQHHETSYRDIQQFIEKPPGKLRIFEIYPPKPLHSIALGSRIPALREDYKLGRLCGRYFLATVGKLLTEKAPLTRHLVPVVTPESIVIPPAPVANDTLVAEVSDAPQANDPTFNNEDLA &field=total protein half-life in vivo returns 1.45

---

assay: total protein half-life in vivo (active degradation + dilution); higher = more stable protein; settings: wild type E. coli NCM3722; growth: P-lim chemostat; doubling time 6 h
For each entry below, report its total protein half-life in vivo value.
Respond numerically; units are h and should not be typed.

GET /value?item= MTLKELLVGFGTQVRSIWMIGLHAFAKRETRMYPEEPVYLPPRYRGRIVLTRDPDGEERCVACNLCAVACPVGCISLQKAETKDGRWYPEFFRINFSRCIFCGLCEEACPTTAIQLTPDFEMGEYKRQDLVYEKEDLLISGPGKYPEYNFYRMAGMAIDGKDKGEAENEAKPIDVKSLLP [P0AFD6] &field=total protein half-life in vivo returns 6

GET /value?item= MNAEKSPVNHNVDHEEIAKFEAVASRWWDLEGEFKPLHRINPLRLGYIAERAGGLFGKKVLDVGCGGGILAESMAREGATVTGLDMGFEPLQVAKLHALESGIQVDYVQETVEEHAAKHAGQYDVVTCMEMLEHVPDPQSVVRACAQLVKPGGDVFFSTLNRNGKSWLMAVVGAEYILRMVPKGTHDVKKFIKPAELLGWVDQTSLKERHITGLHYNPITNTFKLGPGVDVNYMLHTQNK &field=total protein half-life in vivo returns 3.13

GET /value?item= MMNFNNVFRWHLPFLFLVLLTFRAAAADTLLILGDSLSAGYRMSASAAWPALLNDKWQSKTSVVNASISGDTSQQGLARLPALLKQHQPRWVLVELGGNDGLRGFQPQQTEQTLRQILQDVKAANAEPLLMQIRLPANYGRRYNEAFSAIYPKLAKEFDVPLLPFFMEEVYLKPQWMQDDGIHPNRDAQPFIADWMAKQLQPLVNHDS [P0ADA1] &field=total protein half-life in vivo returns 5.23
